Quick reference: Octet response of the listed items.
Biological target: T1, HA peptide (Octet assay of PS621 variants)
T1 construct: XAKLDEESILKQK with X = H
T1 peptide: HAKLDEESILKQK
Test: Octet (BLI), 30 C

{"binder": "PS1120 (designed binder, Variant of PS621) MHSKFSHAGRICGAKFKVGEPIYRCKECSFDDTCVLCVNCFNPKDHTGHHVYTKICTEFNNGICDCGDKEAWNHTLFCKAEEG", "Octet response": 1.7}
{"binder": "PS1114 (designed binder, Variant of PS621) MHSKFSHAGRICGAKFKVGEPIYRCKECSFDDTCVLCVNCFNPKDHRGHHVYTTICTERNNGICDCGDKEAWNHTLFCKAEEG", "Octet response": 1.2}
{"binder": "PS1117 (designed binder, Variant of PS621) MHSKFSHAGRICGAKFKVGEPIYRCKECSFDDTCVLCVNCFNPKDHLGHHVYTTICTEFNNGICDCGDKEAWNHTLFCKAEEG", "Octet response": 0.5}
